- target-of-assay: T1, UPAR-His recombinant protein (UniProt Q03405 23-303)
- T1 construct: range 23-303; Expressed in 293 cells, purified on Ni-NTA; Biotinylated in the uPA ELISA; also called UPAR-His antigen; biotinUPAR-His; not shown: C-terminal His tag
- T1 sequence (Q03405 23-303 limits assumed): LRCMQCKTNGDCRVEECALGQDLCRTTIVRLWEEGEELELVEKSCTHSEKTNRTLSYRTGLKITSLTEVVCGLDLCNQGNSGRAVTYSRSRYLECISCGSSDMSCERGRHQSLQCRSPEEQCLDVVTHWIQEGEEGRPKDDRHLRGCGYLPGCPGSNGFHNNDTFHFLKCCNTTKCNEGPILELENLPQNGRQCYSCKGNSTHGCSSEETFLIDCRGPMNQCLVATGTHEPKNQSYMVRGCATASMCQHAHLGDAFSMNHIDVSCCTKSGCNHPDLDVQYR
- experiment-notes: phage ELISA, plate coated with UPAR-His, HRP-anti-M13
Quick list: S/N ratio per entry.

binder: phage mono clone 1-F9 (VHH, the phage coat fusion part is not described; also called 1-F09) VHH: QSLLVESGGGLVQPGGSLRLSCAASGFSLDYYAIGWFRQAPGKEREEVSCISSGGGSTNYADSVKGRFTISRDNAKNTVYLQMNSLKPEDTAVYYCAAKRNFMLYLVQCPYEYDYWGQGTQVTVSS
value-reported: > 5

Give recorded S/N ratio. phage mono clone 1-G2 (VHH, the phage coat fusion part is not described) VHH: QSQLAESGGGLVQPGGSLRLSCVASRFSLDAYAIAWFRQAPGKEREGVSCISSIGGRTNYADPVKGRFTISRDNAKNTAYLEMNSLQPEDTAVYYCAAVQRLFGPCLLSGGMDYWGKGTPVTVSS
> 5
